Tested on: U251 CNS
Experiment: NCI-60 one-dose screen, 48 h
Details: 10 µM unless noted
This is part of a sample that, as a whole, favours compounds with a hit. Of some 83,000 tested, about 20% had one in any assay. The source made the active and inactive calls. How the source made its calls: active means growth percent below 10; inactive means the rest.
Log the outcome using a class from active, inactive

Would you please look over these solved cases?
Each compound tested received a call. Report the one for CC[C@@H](c1ccc2cc(OC)ccc2c1)C(C)(C)C(=O)F .
inactive

// same read-out, input: Cc1cc2nc(-c3c(-c4ccc(F)cc4)nc4sccn34)[nH]c2cc1C
inactive

// same read-out, input: CCCCC(=O)Nc1ncc(Cc2ccccc2Cl)s1
inactive

// same read-out, input: O=C1NC(=C(Cl)Cl)/C(=N/S(=O)(=O)N2CCCCC2)N1
active

// same read-out, input: O=C1Nc2ccccc2/C1=C/c1cn(C[C@@H](O)Cn2c3ccccc3c(=O)c3ccccc32)c2ccccc12
inactive

Further cases:
Each compound tested received a call. Report the one for O=C(CCCCNC(=O)c1cc(=O)c(O)co1)Nc1ccccc1 .
inactive

// same read-out, input: O=C(CCCCCCN1CC(=O)N2[C@@H](C3CCCCC3)c3[nH]c4ccccc4c3C[C@H]2C1=O)NO
inactive

// same read-out, input: CCN(CC)CCN(CCN(CC)CC)c1ccccc1
inactive

// same read-out, input: C=CCN=C(N)SCCCCCCSC(N)=NCC=C
inactive

Each recorded value in this set is attributed to PubChem BioAssay (NCI).
